- targetOfAssay: human recombinant LPA2 expressed in CHO cells (Homo sapiens, UniProt Q9HBW0)
- Construct: expressed in transfected cells; host or cells: CHO cells (CHO-hLPA2 cell line)
- Sequence (Q9HBW0 whole entry): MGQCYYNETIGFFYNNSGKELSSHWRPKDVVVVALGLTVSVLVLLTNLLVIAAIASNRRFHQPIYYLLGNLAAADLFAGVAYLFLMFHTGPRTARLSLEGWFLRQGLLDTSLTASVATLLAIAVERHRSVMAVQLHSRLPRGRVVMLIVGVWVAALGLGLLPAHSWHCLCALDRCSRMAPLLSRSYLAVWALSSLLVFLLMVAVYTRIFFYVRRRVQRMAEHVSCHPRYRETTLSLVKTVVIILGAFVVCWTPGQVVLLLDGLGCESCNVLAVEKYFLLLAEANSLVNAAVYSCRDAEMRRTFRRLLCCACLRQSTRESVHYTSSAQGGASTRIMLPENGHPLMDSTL
- assayInfo: FLIPR calcium mobilization assay, LPA2 antagonism in CHO-hLPA2 cells
- Type: cell-based
- conditionContext: CHO-hLPA2 cells, inhibition of LPA EC80 Ca2+ response, 30 min pre-incubation; read-out: LPA2 IC50
Below, each of the molecules is paired with its reported IC50 value.

molecule: CC(=O)Nc1ncc(S(=O)(=O)N2CCN(C[C@H](C)Nc3ncnc4c(-c5cccnc5)cccc34)CC2)s1 [Example 37]
result: < 10 nM
//
molecule: C[C@@H](CN1CCN(S(=O)(=O)c2ccc3c(c2)sc(=O)n3C)CC1)Nc1ncnc2c(-c3ccc(F)c(CN(C)C)c3)cccc12 [Example 96]
result: < 10 nM
//
molecule: Cc1cc(-c2ccc(S(=O)(=O)N3CCN(C[C@H](C)Nc4ncnc5c(-c6cnc(C(F)(F)F)s6)cccc45)CC3)s2)on1 [Example 15]
result: < 1000 nM
//
molecule: Cc1noc(-c2ccc(S(=O)(=O)N3CCN(C[C@H](C)Nc4ncnc5c(-c6c(C)noc6C)cccc45)CC3)s2)c1C [Example 9]
result: < 10 nM

Field request: IC50 | item: COC(=O)Nc1nc(C)c(S(=O)(=O)N2CCN(C[C@H](C)Nc3ncnc4c(-c5ccc6c(c5)CNC6)cccc34)CC2)s1 [Example 57] < 10 nM

Field request: IC50 | item: COC(=O)Nc1nc(C)c(S(=O)(=O)N2CCN(C[C@H](C)Nc3ncnc4c(-c5cncc(CN6CCCC6)c5)cccc34)CC2)s1 [Example 25] < 10 nM

Field request: IC50 | item: COC(=O)Nc1nc(C)c(S(=O)(=O)N2CCN(C[C@H](C)Nc3ncnc4c(-c5ccc(C)nc5C)cccc34)CC2)s1 [Example 92] < 10 nM

Field request: IC50 | item: C[C@@H](CN1CCN(S(=O)(=O)c2ccc3[nH]c(=O)sc3c2)CC1)Nc1ncnc2c(-c3cccc(CN(C)C)c3)cccc12 [Example 45] < 10 nM

Field request: IC50 | item: CC(=O)Nc1nc(C)c(S(=O)(=O)N2CCN(C[C@H](C)Nc3ncnc4c(-c5cccnc5)cccc34)CC2)s1 [Example 32] < 10 nM

====

- targetOfAssay: human recombinant LPA2 expressed in CHO cells (Homo sapiens, UniProt Q9HBW0)
- Construct: expressed in transfected cells; host or cells: CHO cells (CHO-hLPA2 cell line)
- assayInfo: FLIPR calcium mobilization assay, LPA2 antagonism in CHO-hLPA2 cells
- Format: cell-based
- conditionContext: CHO-hLPA2 cells, inhibition of LPA EC80 Ca2+ response, 30 min pre-incubation; read-out: LPA2 IC50
Below, each of the molecules is paired with its reported IC50 value.

Solved entries:
sampleSmiles: Cc1nc(NC(=O)CN(C)C)sc1S(=O)(=O)N1CCN(C[C@H](C)Nc2ncnc3c(-c4cn(C)nc4C(F)(F)F)cccc23)CC1
recordedMetric: IC50
result: < 10 nM

sampleSmiles: COC(=O)Nc1nc(C)c(S(=O)(=O)N2CCN(C[C@H](C)Nc3ncnc4c(-c5cccc(CN(C)C)c5F)cccc34)CC2)s1
recordedMetric: IC50
result: < 10 nM

sampleSmiles: COC(=O)Nc1nc(C)c(S(=O)(=O)N2CCN(C[C@H](C)Nc3ncnc4c(-c5ccccn5)cccc34)CC2)s1
recordedMetric: IC50
result: < 10 nM

sampleSmiles: COC(=O)Nc1nc(C)c(S(=O)(=O)N2CCN(C[C@H](C)Nc3ncnc4c(-c5cn(CCN(C)C)nc5C(F)(F)F)cccc34)CC2)s1
recordedMetric: IC50
result: < 10 nM

sampleSmiles: COC(=O)Nc1nc(C)c(S(=O)(=O)N2CCN(C[C@H](C)Nc3ncnc4c(-c5cccc(CN6CCN(C)CC6)c5)cccc34)CC2)s1
recordedMetric: IC50
result: < 10 nM

Field request: IC50 | item: `Cc1cc(-c2ccc(S(=O)(=O)N3CCN(C[C@H](C)Nc4ncnc5c(-c6cccc(CN7CCCC7)c6)cccc45)CC3)s2)on1` < 10 nM

Field request: IC50 | item: `COC(=O)Nc1nc(C)c(S(=O)(=O)N2CCN(C[C@H](C)Nc3ncnc4c(-c5ccc(C)nc5)cccc34)CC2)s1` < 10 nM

Field request: IC50 | item: `COC(=O)Nc1ncc(S(=O)(=O)N2CCN(C[C@H](C)Nc3ncnc4c(-c5cccc(CN(C)C)c5)cccc34)CC2)s1` < 10 nM

Field request: IC50 | item: `C[C@@H](CN1CCN(S(=O)(=O)c2ccc3c(c2)CC(=O)N3)CC1)Nc1ncnc2c(-c3cccnc3)cccc12` 10 to 100 nM

Field request: IC50 | item: `COC(=O)Nc1nc(C)c(S(=O)(=O)N2CCN(C[C@H](C)Nc3ncnc4c(-c5cc(C)ncn5)cccc34)CC2)s1` 10 to 100 nM

Field request: IC50 | item: `C[C@@H](CN1CCN(S(=O)(=O)c2ccccn2)CC1)Nc1ncnc2c(-c3cn(C)nc3C(F)(F)F)cccc12` 10 to 100 nM

Field request: IC50 | item: `C[C@@H](CN1CCN(S(=O)(=O)c2ccc3[nH]c(=O)[nH]c(=O)c3c2)CC1)Nc1ncnc2c(-c3cccc(CN(C)C)c3)cccc12` < 10 nM

Field request: IC50 | item: `C[C@@H](CN1CCN(S(=O)(=O)c2ccc3[nH]c(=O)sc3c2)CC1)Nc1ncnc2c(-c3ccc(F)c(CN(C)C)c3)cccc12` < 10 nM

====

- targetOfAssay: human recombinant LPA2 expressed in CHO cells (Homo sapiens)
- Construct: expressed in transfected cells; host or cells: CHO cells (CHO-hLPA2 cell line)
- assayInfo: FLIPR calcium mobilization assay, LPA2 antagonism in CHO-hLPA2 cells
- Assay type: cell-based
- conditionContext: CHO-hLPA2 cells, inhibition of LPA EC80 Ca2+ response, 30 min pre-incubation; read-out: LPA2 IC50
recordedMetric: IC50

Solved entries:
molecule: Cc1nc(NCCN(C)C)sc1S(=O)(=O)N1CCN(C[C@H](C)Nc2ncnc3c(-c4c(C)n[nH]c4C)cccc23)CC1 [Example 39]
IC50: 10 to 100 nM
--
molecule: COC(=O)Nc1nc(C)c(S(=O)(=O)N2CCN(C[C@H](C)Nc3ncnc4c(-c5cccc(N6CCN(C)CC6)c5)cccc34)CC2)s1 [Example 35]
IC50: < 10 nM
--
molecule: COC(=O)Nc1nc(C)c(S(=O)(=O)N2CCN(C[C@H](C)Nc3ncnc4c(-c5ccc(N(C)C)nc5)cccc34)CC2)s1 [Example 26]
IC50: < 10 nM
--
molecule: COC(=O)Nc1nc(C)c(S(=O)(=O)N2CCN(C[C@H](C)Nc3ncnc4c(-c5ccc6c(c5)CN(C)C6)cccc34)CC2)s1 [Example 80]
IC50: < 10 nM
--
molecule: Cc1cc(-c2ccc(S(=O)(=O)N3CCN(C[C@H](C)Nc4ncnc5c(-c6ccccc6)cccc45)CC3)s2)on1 [Example 4]
IC50: < 10 nM

Give IC50 (human recombinant LPA2 expressed in CHO cells (Homo sapiens)) of the following molecule: C[C@@H](CN1CCN(S(=O)(=O)c2ccc(Cl)c(Cl)c2)CC1)Nc1ncnc2c(-c3cccc(CN(C)C)c3)cccc12 [Example 46] < 10 nM

====

- targetOfAssay: human recombinant LPA2 expressed in CHO cells (Homo sapiens)
- Construct: expressed in transfected cells; host or cells: CHO cells (CHO-hLPA2 cell line)
- assayInfo: FLIPR calcium mobilization assay, LPA2 antagonism in CHO-hLPA2 cells
- Assay type: cell-based
- conditionContext: CHO-hLPA2 cells, inhibition of LPA EC80 Ca2+ response, 30 min pre-incubation; read-out: LPA2 IC50
pIC50: −log10 of the molar value.
recordedMetric: pIC50

Solved entries:
sampleSmiles: Cc1ccc(-c2cccc3c(N[C@@H](C)CN4CCN(S(=O)(=O)c5ccc6nc(C)sc6c5)CC4)ncnc23)cn1
targetOfAssay: human recombinant LPA2 expressed in CHO cells (Homo sapiens)
recordedMetric: pIC50
result: 7.00 to 8.00

sampleSmiles: COC(=O)Nc1nc(C)c(S(=O)(=O)N2CCN(C[C@H](C)Nc3ncnc4c(C5CC5)cccc34)CC2)s1
targetOfAssay: human recombinant LPA2 expressed in CHO cells (Homo sapiens)
recordedMetric: pIC50
result: 7.00 to 8.00

sampleSmiles: COC(=O)Nc1nc(C)c(S(=O)(=O)N2CCN(C[C@H](C)Nc3ncnc4c(-c5ccnc(C#N)n5)cccc34)CC2)s1
targetOfAssay: human recombinant LPA2 expressed in CHO cells (Homo sapiens)
recordedMetric: pIC50
result: 7.00 to 8.00

Moving on to another molecule below.
Give pIC50 (human recombinant LPA2 expressed in CHO cells (Homo sapiens)) of the following molecule: `Cc1cc(-c2ccc(S(=O)(=O)N3CCN(C[C@H](C)Nc4ncnc5c(-c6ccncc6)cccc45)CC3)s2)on1` > 8.00
